# ASSAY_PROTOCOL: in vivo
# TEST_CONDITIONS: goat, po, 7.5 mg/kg, Area under plasma-concentration-time curve (Active alone), active alone, goats, fenbendazole 7.5 mg/kg oral
READOUT: AUC (ng·h/mL)
Return type: number; implicit unit ng·h/mL.

Data request: Fill blank: measured AUC of the compound COC(=O)Nc1nc2ccc([S+]([O-])c3ccccc3)cc2[nH]1 (stereo not shown) [Fenbendazole sulfoxide, fenbendazole sulfoxide] is ____.
Data returned: 7720

* * *

# ASSAY_PROTOCOL: in vivo
# TEST_CONDITIONS: goat, po, 7.5 mg/kg, Area under plasma-concentration-time curve (Active alone)
READOUT: AUC (ng·h/mL)
Please reply with the bare figure in ng·h/mL and do not write the unit itself.

Data request: Name the recorded AUC for COC(=O)Nc1nc2ccc(Sc3ccccc3)cc2[nH]1 .
Data returned: 4170
